# Experiment notes: osmotic lysis modulators in infected erythrocytes, primary screen, PSAC antagonist project, cell-based, P. falciparum Indochina, OD700, 3 h (AID 1156)
# Reported conditions: higher = more signal, called active from +8 up or from −8 down
Please provide measured z-score for the entries that follow.
Answers are plain numbers.

// solved cases for z-score follow
Entry "CCOC(=O)NN=C1C[C@@H](O)[C@@H](O)[C@@H]2[C@@H]3C(=O)N(C[C@@H]4CCCO4)C(=O)[C@@H]3CC[C@H]12" ; z-score = -0.497

Entry "CC(CCN1CCCc2nc(C)c(C)cc21)=NO[C@H](C)c1cn([C@@H]2COC[C@H]2O)nn1" ; z-score = 0.09

Entry "O=C1C[C@@H](O)[C@@H](O)[C@@H]2[C@@H]3C(=O)N(c4ccc(F)cc4F)C(=O)[C@@H]3CC[C@H]12" ; z-score = -0.737

Would you kindly look at the next entry?
Entry "C=CC[C@@H]1C=C[C@H](Oc2ccc(C)cc2)[C@@H](COC(=O)NCc2cccc3ccccc23)O1" ; z-score = -0.508
